These entries and their values trace back to paper PMC3534213.

- method: Free fraction in brain (brain tissue binding, Fub)
- Format: in vitro ADME

{"compound structure": "CC(C)C[C@H](C(=O)O)c1cc(-c2ccc(C(F)(F)F)cc2)cc(-c2ccc(C(F)(F)F)cc2)c1", "limit qualifier": "<", "fraction unbound": 0.001}
{"compound structure": "COc1nc(-c2nc3n(n2)CCO[C@H]3c2ccccc2OC(F)(F)F)ccc1-n1cnc(C)c1", "limit qualifier": "=", "fraction unbound": 0.039}

====

- method: Dog model combining PK/PD data with early observations of liver toxicity
- Type: in vivo
- run conditions: plasma, po, 20 mg/kg
attribute measured: Cmax

{"compound": "COc1nc(-c2nc3n(n2)CCO[C@H]3c2ccccc2OC(F)(F)F)ccc1-n1cnc(C)c1 [Compound 16]", "value observed": "24 µM"}
